assay-summary: NCI Yeast Anticancer Drug Screen. Data for the mgt1 strain (AID 153)
protocol-conditions: S. cerevisiae mgt1 mutant growth inhibition; at 1.2 µM; hits give high values
Compounds without any hit were thinned out: in the full panel of roughly 79,000, 15% have a hit. Active and inactive are the calls of the source. Rule as the data show it: active = growth inhibition above about 70%; inactive = the rest.
The following compounds are shown together with reported growth inhibition values.

[[record]]
compound = "CN(C)CCn1c2ccccc2c2nc3cc4ccccc4cc3nc21"
endpoint_label = "growth inhibition"
readout_value = "-2% (inactive)"


Sample O=C(/C(=C/c1ccccc1)CBr)c1ccccc1 — what was its growth inhibition?
-1% (inactive)

Please answer likewise for O=C(CSS(=O)(=O)O)c1ccccc1
-1% (inactive)

What do we get for O=C1c2ccc(O)cc2C(=O)c2c(O)ccc(O)c21 ?
1% (inactive)

Moving on to the next compound: Nc1nc(Nc2ccccc2)nc(Nc2ccccc2)n1
-1% (inactive)

One more compound: CN(C)CCNC(=O)c1cccc2nc3c4ccccc4c4ccccc4c3nc12
1% (inactive)

---

growth inhibition values, listed per item
assay-summary: NCI Yeast Anticancer Drug Screen. Data for the rad50 strain (AID 155);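 also: 0% = growth of vehicle-only cultures of the same strain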
protocol-conditions: S. cerevisiae rad50 strain growth inhibition; at 3.7 µM; hits give high values
Compounds without any hit were thinned out: in the full panel of roughly 79,000, 15% have a hit.
Enter your answer as a number in %; do not include the unit.

Solved entries:
[[record]]
compound = "CN(C)CCC(=O)c1c[nH]c2ccccc12"
uom = "%"
readout_value = -17

[[record]]
compound = "O=C(O)[C@H]1[C@@H](C2CCCCC2)O[C@@H](C2CCCCC2)O[C@H]1C(F)(F)F"
uom = "%"
readout_value = -5


// switching to the query compound
I would be grateful if you could share the reported growth inhibition for O=c1c(Br)cc2c(-c3ccccc3)c3cc(Br)c(O)c(Br)c3oc-2c1Br .
24

---

assay-summary: NCI Yeast Anticancer Drug Screen. Data for the rad52 strain (AID 147);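 also: 0% = growth of vehicle-treated control cultures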
protocol-conditions: S. cerevisiae rad52 mutant growth inhibition; at 33.0 µM; hits give high values
Compounds without any hit were thinned out: in the full panel of roughly 79,000, 15% have a hit. Active and inactive are the calls of the source. Rule as the data show it: active = growth inhibition above about 70%; inactive = the rest.
endpoint-label: growth inhibition

[[record]]
mol = "Cc1ccc(S(=O)(=O)N/N=C/c2c(O)ccc3ccccc23)cc1"
readout_value = "83% (active)"

[[record]]
mol = "CC(=O)c1ccc(NCN2C(=O)c3ccccc3C2=O)cc1"
readout_value = "84% (active)"


Endpoint output: growth inhibition of Cc1ccc(SSc2ccc(C)cc2[N+](=O)[O-])c([N+](=O)[O-])c1 . Value?
77% (active)

---

assay-summary: NCI Yeast Anticancer Drug Screen. Data for the rad50EPP+ strain (AID 151);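 also: 0% = growth of vehicle-treated control cultures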
protocol-conditions: S. cerevisiae rad50 mutant strain, at 33.0 µM, hits give high values
Compounds without any hit were thinned out: in the full panel of roughly 79,000, 15% have a hit.
# binning rule on growth inhibition: group 1 (below 20%), group 2 (20% to below 80%), group 3 (80% or more)

Completed entries (count: 9):
[[record]]
molecule = "Cc1ccc(SSc2ccc(C)cc2[N+](=O)[O-])c([N+](=O)[O-])c1"
discrete_label = "group 3"

[[record]]
molecule = "O=C1C(Br)=CC(Br)(Br)C=C1Br"
discrete_label = "group 3"

[[record]]
molecule = "S=c1[nH]nc(Cc2ccccc2)c(=S)[nH]1"
discrete_label = "group 1"

[[record]]
molecule = "O=c1[nH]c(=O)n(CCCO)cc1F"
discrete_label = "group 1"

[[record]]
molecule = "Cc1ccnc(NS(=O)(=O)c2ccc(Nc3c4ccccc4nc4ccccc34)cc2)n1"
discrete_label = "group 2"

[[record]]
molecule = "COc1ccc(/C=C2\\CCc3ccccc3C2=O)cc1OC"
discrete_label = "group 2"

[[record]]
molecule = "COC(=O)C1(N2CCOCC2)CCC([C@@H](c2ccccc2)C(C)[N+](=O)[O-])C1 (stereo partly specified)"
discrete_label = "group 2"

[[record]]
molecule = "COc1ccc(/C=C2\\S/C(=N/Nc3nc(-c4ccccc4)cs3)NC2=O)cc1OC"
discrete_label = "group 3"

[[record]]
molecule = "CCOC(=O)C(NC(=O)c1ccccc1)[CH](c1ccccc1)[Sn]([c]1ccccc1)([c]1ccccc1)[c]1ccccc1 (stereo unspecified)"
discrete_label = "group 1"


Now turn to the next molecule.
GET /class?item= CCOc1ccccc1N1C(=O)CC(Sc2ccccc2N)C1=O (stereo unspecified)
group 1
